Each recorded value in this set is attributed to ChEMBL document CHEMBL5512646.

Each entry below carries its reported EC50.
- System: MOLM-13
- Assay Name: Cytotoxicity against human MOLM-13 cells assessed as induction of cell death incubated for 24 hrs by WST-1 assay
- Settings: MOLM-13, 24 h

- Molecular String: "CCN(CC)CCCn1c2ccccc2c2c3[nH]ncc3c3c4ccccc4[nH]c3c21"
  EC50: "> 4 µM"
- Molecular String: "CCCCn1c2ccccc2c2c3[nH]ncc3c3c4ccccc4[nH]c3c21"
  EC50: "> 5 µM"
- Molecular String: "OCCCCn1c2ccccc2c2c3[nH]ncc3c3c4ccccc4[nH]c3c21"
  EC50: "4.1 µM"
- Molecular String: "NCCCn1c2ccccc2c2c3[nH]ncc3c3c4ccccc4[nH]c3c21"
  EC50: "> 40 µM"

----------
- Experimental Target: 5'-AMP-activated protein kinase catalytic subunit alpha-2 (Homo sapiens, UniProt P54646)
- Sequence (P54646 whole entry): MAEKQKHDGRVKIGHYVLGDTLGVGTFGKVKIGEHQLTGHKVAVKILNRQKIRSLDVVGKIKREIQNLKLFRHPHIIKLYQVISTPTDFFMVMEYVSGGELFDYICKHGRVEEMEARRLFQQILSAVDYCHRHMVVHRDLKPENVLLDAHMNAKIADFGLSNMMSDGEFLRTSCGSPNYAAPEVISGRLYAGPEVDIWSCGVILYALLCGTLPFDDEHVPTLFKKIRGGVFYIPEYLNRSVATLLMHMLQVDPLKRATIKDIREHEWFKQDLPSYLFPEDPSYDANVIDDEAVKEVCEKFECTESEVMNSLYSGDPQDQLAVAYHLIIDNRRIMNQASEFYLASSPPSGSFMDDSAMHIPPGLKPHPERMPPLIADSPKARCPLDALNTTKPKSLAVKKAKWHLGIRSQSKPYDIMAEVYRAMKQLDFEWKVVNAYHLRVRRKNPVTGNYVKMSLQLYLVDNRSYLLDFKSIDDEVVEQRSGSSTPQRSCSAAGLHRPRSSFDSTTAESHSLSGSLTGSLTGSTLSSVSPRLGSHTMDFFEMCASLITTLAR
- Assay Name: Inhibition of human AMPK using HMRSAMSGLHLVKRR as substrate in presence of ATP
pIC50: −log10 of the molar value.

- Molecular String: "CNCCCn1c2ccccc2c2c3cn[nH]c3c3c4ccccc4[nH]c3c21"
  pIC50: 7.84

----------
- Test system: MOLM-13
- Assay Name: Cytotoxicity against human MOLM-13 cells assessed as induction of cell death incubated for 24 hrs by WST-1 assay
- Settings: MOLM-13, 24 h
pEC50: −log10 of the molar value.

- Molecular String: "NCCCCn1c2ccccc2c2c3[nH]ncc3c3c4ccccc4[nH]c3c21"
  Inequality Operator: "="
  pEC50: 5.57
- Molecular String: "CCCCCn1c2ccccc2c2c3cn[nH]c3c3c4ccccc4[nH]c3c21"
  Inequality Operator: "<"
  pEC50: 5.30
- Molecular String: "CCN(CC)CCCCn1c2ccccc2c2c3[nH]ncc3c3c4ccccc4[nH]c3c21"
  Inequality Operator: "="
  pEC50: 5.37
- Molecular String: "CN(C)CCCn1c2ccccc2c2c3[nH]ncc3c3c4ccccc4[nH]c3c21"
  Inequality Operator: "="
  pEC50: 5.42
- Molecular String: "CCCCCn1c2ccccc2c2c3[nH]ncc3c3c4ccccc4[nH]c3c21"
  Inequality Operator: "="
  pEC50: 4.82

----------
- Experimental Target: Glycogen synthase kinase-3 beta (Homo sapiens, UniProt P49841)
- Sequence (P49841 whole entry): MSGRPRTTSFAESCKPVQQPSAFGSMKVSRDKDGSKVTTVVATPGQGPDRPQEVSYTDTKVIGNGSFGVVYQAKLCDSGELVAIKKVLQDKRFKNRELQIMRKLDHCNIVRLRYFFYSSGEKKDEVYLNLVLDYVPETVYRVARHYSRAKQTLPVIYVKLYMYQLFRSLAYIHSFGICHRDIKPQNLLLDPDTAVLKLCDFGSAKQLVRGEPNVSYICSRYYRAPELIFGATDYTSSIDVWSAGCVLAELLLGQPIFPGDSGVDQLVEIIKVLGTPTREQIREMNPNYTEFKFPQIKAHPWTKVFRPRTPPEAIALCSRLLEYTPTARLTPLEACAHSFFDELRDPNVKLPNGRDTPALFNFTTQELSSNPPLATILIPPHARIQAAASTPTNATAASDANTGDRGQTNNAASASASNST

- Molecular String: "CNCCCn1c2ccccc2c2c3cn[nH]c3c3c4ccccc4[nH]c3c21"
  IC50: "128 nM"

----------
- Experimental Target: Serine/threonine-protein kinase pim-2 (Homo sapiens, UniProt Q9P1W9)
- Sequence (Q9P1W9 whole entry): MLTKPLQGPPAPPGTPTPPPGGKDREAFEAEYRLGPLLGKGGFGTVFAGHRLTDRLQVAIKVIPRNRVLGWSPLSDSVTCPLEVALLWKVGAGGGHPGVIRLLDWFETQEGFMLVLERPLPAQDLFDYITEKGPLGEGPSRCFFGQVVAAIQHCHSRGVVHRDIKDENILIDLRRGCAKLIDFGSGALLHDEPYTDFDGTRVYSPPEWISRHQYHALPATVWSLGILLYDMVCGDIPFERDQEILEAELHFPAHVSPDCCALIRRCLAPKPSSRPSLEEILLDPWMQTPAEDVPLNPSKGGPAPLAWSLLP

- Molecular String: "CNCCCn1c2ccccc2c2c3cn[nH]c3c3c4ccccc4[nH]c3c21"
  Experimental Target: "Serine/threonine-protein kinase pim-2 (Homo sapiens, UniProt Q9P1W9)"
  IC50, nM: 316

----------
- Experimental Target: Serine/threonine-protein kinase N2 (Homo sapiens, UniProt Q16513)
- Sequence (Q16513 whole entry): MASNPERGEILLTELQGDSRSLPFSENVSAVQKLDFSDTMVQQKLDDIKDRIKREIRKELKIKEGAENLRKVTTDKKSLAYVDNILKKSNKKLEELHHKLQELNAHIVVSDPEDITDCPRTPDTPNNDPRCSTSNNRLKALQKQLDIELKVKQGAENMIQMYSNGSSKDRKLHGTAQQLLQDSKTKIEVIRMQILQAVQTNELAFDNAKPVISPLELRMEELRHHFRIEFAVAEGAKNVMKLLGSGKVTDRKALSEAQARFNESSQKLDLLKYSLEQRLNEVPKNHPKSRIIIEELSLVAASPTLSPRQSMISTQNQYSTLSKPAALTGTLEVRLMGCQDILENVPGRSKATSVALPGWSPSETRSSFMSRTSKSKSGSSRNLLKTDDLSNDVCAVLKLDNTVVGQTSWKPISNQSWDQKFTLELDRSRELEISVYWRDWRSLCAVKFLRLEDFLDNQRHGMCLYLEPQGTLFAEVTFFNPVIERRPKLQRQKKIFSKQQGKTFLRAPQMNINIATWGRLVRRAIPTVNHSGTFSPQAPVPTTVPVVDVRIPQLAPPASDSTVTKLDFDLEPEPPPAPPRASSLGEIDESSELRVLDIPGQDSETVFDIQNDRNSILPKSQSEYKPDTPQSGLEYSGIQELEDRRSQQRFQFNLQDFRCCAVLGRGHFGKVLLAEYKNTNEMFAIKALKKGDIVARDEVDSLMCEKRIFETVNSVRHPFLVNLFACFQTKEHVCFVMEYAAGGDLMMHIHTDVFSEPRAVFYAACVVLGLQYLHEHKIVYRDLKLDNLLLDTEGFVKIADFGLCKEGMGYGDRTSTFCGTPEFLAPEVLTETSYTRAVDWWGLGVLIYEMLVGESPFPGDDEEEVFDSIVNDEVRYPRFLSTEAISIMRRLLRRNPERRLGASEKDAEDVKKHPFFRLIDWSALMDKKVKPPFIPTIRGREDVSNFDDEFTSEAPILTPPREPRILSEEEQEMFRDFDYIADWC
Quantity Measured: IC50 (nM)

- Molecular String: "CNCCCn1c2ccccc2c2c3cn[nH]c3c3c4ccccc4[nH]c3c21"
  Readout Unit: "nM"
  Measurement: 9
